- Test system: c-jun mRNA
- protocol.summary: c-jun mRNA expression in TPA-induced A549 cells, Northern blotting
- Type: cell-based, human
- assay.setup: Table 5; TPA - no oligo = 100, basal = 23; A549 cells
Strand notation (5' to 3'): a small letter for the sugar, then the base; units joined by * are phosphorothioate-linked, units joined directly phosphodiester-linked; [ ] holds rarer units or linkages, { } end groups; capitals alone tell only the bases. d = 2'-deoxy (DNA)
attribute.measured: c-jun (mRNA level, specificity experiment)
Answer as a number with no unit attached.

In: Entry GCT-GTG-GGC-CTC-AAG-GAC-TT (GCTGTGGGCCTCAAGGACTT; antisense; DNA, all phosphorothioate, methylation of C not given here) [ISIS 11184] : reported c-jun (mRNA level, specificity experiment) = ?
Out: 91

In: Consider next the substance AAG-TCC-TTG-AGG-CCC-ACA-GC (AAGTCCTTGAGGCCCACAGC; antisense; all phosphorothioate, sugars by position and methylation of C not given here) [ISIS 10639] in the same way.
Out: 97

In: Consider next the substance ATG-TGC-TAG-ATG-CGC-AAA-GT (ATGTGCTAGATGCGCAAAGT; antisense; DNA, all phosphorothioate, methylation of C not given here) [ISIS 11185] in the same way.
Out: 98

In: Consider next the substance TCA-GCC-CCC-GAC-GGT-CTC-TC (dT*dC*dA*dG*dC*dC*dC*dC*dC*dG*dA*dC*dG*dG*dT*dC*dT*dC*dT*dC; antisense) [ISIS 10582] in the same way.
Out: 4

In: Consider next the substance ACG-TCC-GAT-TCC-GAG-CGC-AA (ACGTCCGATTCCGAGCGCAA; antisense; DNA, all phosphorothioate, methylation of C not given here) [ISIS 11186] in the same way.
Out: 99

In: Consider next the substance TCG-GCA-CCT-GAA-GGA-CTT-TC (dT*dC*dG*dG*dC*dA*dC*dC*dT*dG*dA*dA*dG*dG*dA*dC*dT*dT*dT*dC; antisense) [ISIS 11564] in the same way.
Out: 71

----------
- Test system: c-fos mRNA
- protocol.summary: c-fos mRNA expression in TPA-induced A549 cells, Northern blotting
- Assay type: cell-based, human
- assay.setup: 400 nM oligonucleotide, TPA-induced A549 cells
Would you kindly list inhibition of c-fos mRNA expression for each of these substances?
State just the number; it will be interpreted in %.

In: Form: Entry = GGT-GCC-GGC-TGC-CTC-CCC-TT (GGTGCCGGCTGCCTCCCCTT; antisense; all phosphorothioate, sugars by position and methylation of C not given here) [ISIS 10638] | System = c-fos mRNA | inhibition of c-fos mRNA expression = ____
Out: 78

In: Consider next the substance AAG-TCC-TTG-AGG-CCC-ACA-GC (AAGTCCTTGAGGCCCACAGC; antisense; all phosphorothioate, sugars by position and methylation of C not given here) [ISIS 10639] in the same way.
Out: 91

In: Consider next the substance AGC-TCC-CTC-CTC-CGG-TTG-CG (AGCTCCCTCCTCCGGTTGCG; antisense; all phosphorothioate, sugars by position and methylation of C not given here) [ISIS 10633] in the same way.
Out: 76

In: Consider next the substance TGG-CAC-GGA-GCG-GGC-TGT-CT (TGGCACGGAGCGGGCTGTCT; antisense; all phosphorothioate, sugars by position and methylation of C not given here) [ISIS 10635] in the same way.
Out: 88

----------
- System: c-fos mRNA
- protocol.summary: c-fos mRNA expression in TPA-induced A549 cells, Northern blotting
- Type: cell-based, human
- assay.setup: 400 nM oligonucleotide with LIPOFECTIN; control is TPA induction, at 1 hour, in A549 cells
attribute.measured: c-fos mRNA % CONTROL (% CONTROL)
State just the number; it will be interpreted in % CONTROL.

In: Entry CGC-GCC-CGG-CCT-GAA-AAT-TT (CGCGCCCGGCCTGAAAATTT; antisense; DNA, all phosphorothioate, methylation of C not given here) [ISIS 10642] : reported c-fos mRNA % CONTROL = ?
Out: 87

In: Consider next the substance TCC-CGT-CCC-CAG-AAG-CAG-TA (TCCCGTCCCCAGAAGCAGTA; antisense; DNA, all phosphorothioate, methylation of C not given here) [ISIS 10641] in the same way.
Out: 68

In: Consider next the substance CCC-CTC-CAG-CAG-CTA-CCC-TT (CCCCTCCAGCAGCTACCCTT; antisense; all phosphorothioate, sugars by position and methylation of C not given here) [ISIS 10640] in the same way.
Out: 87

In: Consider next the substance AAG-TCC-TTG-AGG-CCC-ACA-GC (AAGTCCTTGAGGCCCACAGC; antisense; all phosphorothioate, sugars by position and methylation of C not given here) [ISIS 10639] in the same way.
Out: 9

In: Consider next the substance CCT-GCC-TCG-GCC-TCC-CAA-AG (CCTGCCTCGGCCTCCCAAAG; antisense; DNA, all phosphorothioate, methylation of C not given here) [ISIS 10643] in the same way.
Out: 39

In: Consider next the substance AGC-TCC-CTC-CTC-CGG-TTG-CG (AGCTCCCTCCTCCGGTTGCG; antisense; all phosphorothioate, sugars by position and methylation of C not given here) [ISIS 10633] in the same way.
Out: 24

In: Consider next the substance CCT-CAC-AGG-GCC-AGC-AGC-GT (CCTCACAGGGCCAGCAGCGT; antisense; all phosphorothioate, sugars by position and methylation of C not given here) [ISIS 10637] in the same way.
Out: 35

In: Consider next the substance CCC-CCA-CTT-CCG-CCC-ACT-AT (CCCCCACTTCCGCCCACTAT; antisense; DNA, all phosphorothioate, methylation of C not given here) [ISIS 10644] in the same way.
Out: 104

In: Consider next the substance CAT-CGT-GGC-GGT-TAG-GCA-AA (CATCGTGGCGGTTAGGCAAA; antisense; all phosphorothioate, sugars by position and methylation of C not given here) [ISIS 10630] in the same way.
Out: 91

In: Consider next the substance TGG-CAC-GGA-GCG-GGC-TGT-CT (TGGCACGGAGCGGGCTGTCT; antisense; all phosphorothioate, sugars by position and methylation of C not given here) [ISIS 10635] in the same way.
Out: 12

----------
- System: c-fos mRNA
- protocol.summary: c-fos mRNA expression in TPA-induced A549 cells, Northern blotting
- Type: cell-based, human
- assay.setup: 400 nM oligonucleotide with LIPOFECTIN; control is TPA induction, at 1 hour, in A549 cells
Would you kindly list c-fos mRNA % CONTROL for each of these substances?
State just the number; it will be interpreted in % CONTROL.

In: Entry TGC-TGC-TGC-CCT-TGC-GGT-GG (TGCTGCTGCCCTTGCGGTGG; antisense; all phosphorothioate, sugars by position and methylation of C not given here) [ISIS 10636] : reported c-fos mRNA % CONTROL = ?
Out: 42

In: Consider next the substance TTG-CAG-GCA-GGT-CGG-TGA-GC (TTGCAGGCAGGTCGGTGAGC; antisense; all phosphorothioate, sugars by position and methylation of C not given here) [ISIS 10634] in the same way.
Out: 42

In: Consider next the substance CGG-TCA-CTG-CTC-GTT-CGC-TG (CGGTCACTGCTCGTTCGCTG; antisense; all phosphorothioate, sugars by position and methylation of C not given here) [ISIS 10629] in the same way.
Out: 72

In: Consider next the substance CCC-TCC-CAG-GCT-CAA-GTC-AT (CCCTCCCAGGCTCAAGTCAT; antisense; DNA, all phosphorothioate, methylation of C not given here) [ISIS 10646] in the same way.
Out: 100

In: Consider next the substance TGG-TGC-CTG-CGT-GAT-ACT-CG (TGGTGCCTGCGTGATACTCG; antisense; DNA, all phosphorothioate, methylation of C not given here) [ISIS 10645] in the same way.
Out: 56

----------
- Tested on: c-fos mRNA
- protocol.summary: c-fos mRNA expression in TPA-induced A549 cells, Northern blotting
- Type: cell-based, human
- assay.setup: 400 nM oligonucleotide with LIPOFECTIN; control is TPA induction, at 1 hour, in A549 cells
Would you kindly list c-fos mRNA % CONTROL for each of these substances?
State just the number; it will be interpreted in % CONTROL.

In: Entry GAG-AAC-ATC-ATC-GTG-GCG-GT (GAGAACATCATCGTGGCGGT; antisense; all phosphorothioate, sugars by position and methylation of C not given here) [ISIS 10631] : reported c-fos mRNA % CONTROL = ?
Out: 118

In: Consider next the substance GGT-GCC-GGC-TGC-CTC-CCC-TT (GGTGCCGGCTGCCTCCCCTT; antisense; all phosphorothioate, sugars by position and methylation of C not given here) [ISIS 10638] in the same way.
Out: 22

// data source = patent US20030194738A1
